# maps each entry to its particle size
ASSAY TEXT: Particle size, PdI and zeta potential of mRNA-encapsulating LNPs by dynamic light scattering
Assay type: physicochemical
CONDITION INFO: FLuc mRNA-encapsulating LNP, cationic lipid:DOPC:Chol=55:5:40 + about 1 mol DMG-PEG2k; dynamic light scattering
The reply should be a number in nm, with the unit left off.

CCCCCCCC/C=C\CCCCCCCC(=O)Oc1ccc(CC(=O)OCCOC(=O)C(CSSCC(NC(=O)CN(CCC)CCC)C(=O)OCCOC(=O)Cc2ccc(OC(=O)CCCCCCC/C=C\CCCCCCCC)cc2)NC(=O)CN(CCC)CCC)cc1 (stereo not drawn) ... 112
CCCCCCCC/C=C\CCCCCCCC(=O)Oc1ccc(CC(=O)OCCOC(=O)C(CSSCC(NC(=O)CN(C)CC)C(=O)OCCOC(=O)Cc2ccc(OC(=O)CCCCCCC/C=C\CCCCCCCC)cc2)NC(=O)CN(C)CC)cc1 (stereo not drawn) ... 82
CCCCCCCC/C=C\CCCCCCCC(=O)Oc1ccc(CC(=O)OCCOC(=O)C(CSSCC(NC(=O)CN2CCCCC2)C(=O)OCCOC(=O)Cc2ccc(OC(=O)CCCCCCC/C=C\CCCCCCCC)cc2)NC(=O)CN2CCCCC2)cc1 (stereo not drawn) ... 126

Request: Reported particle size for CCCCCCCC/C=C\CCCCCCCC(=O)Oc1ccc(CC(=O)OCCOC(=O)C(CSSCC(NC(=O)CN(CC)CC)C(=O)OCCOC(=O)Cc2ccc(OC(=O)CCCCCCC/C=C\CCCCCCCC)cc2)NC(=O)CN(CC)CC)cc1 (stereo not drawn) : what is it?
Response: 81

Request: I'd like to know its particle size. The compound in question is CCCCCCCC/C=C\CCCCCCCC(=O)Oc1ccc(CC(=O)OCCOC(=O)C(CSSCC(NC(=O)CN(C)CCC)C(=O)OCCOC(=O)Cc2ccc(OC(=O)CCCCCCC/C=C\CCCCCCCC)cc2)NC(=O)CN(C)CCC)cc1 (stereo not drawn)
Response: 111

Request: Report particle size for CCCCCCCC/C=C\CCCCCCCC(=O)Oc1ccc(CC(=O)OCCOC(=O)C(CSSCC(NC(=O)CN(C)C)C(=O)OCCOC(=O)Cc2ccc(OC(=O)CCCCCCC/C=C\CCCCCCCC)cc2)NC(=O)CN(C)C)cc1 (stereo not drawn) please.
Response: 78
